- tested-target: Bcl-2-like protein 2 (Homo sapiens, UniProt Q92843)
- Sequence (Q92843 whole entry): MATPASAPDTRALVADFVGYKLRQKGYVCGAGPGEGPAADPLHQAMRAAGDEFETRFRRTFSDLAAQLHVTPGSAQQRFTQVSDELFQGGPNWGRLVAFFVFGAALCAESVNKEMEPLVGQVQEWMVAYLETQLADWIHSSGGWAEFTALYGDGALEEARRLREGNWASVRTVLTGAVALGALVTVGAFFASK
- assay-method-text: Inhibition of Bak peptide binding to human recombinant Bcl-w
measurement-kind: Ki (nM)
One number for each entry, in nM.

Example entries begin here.
O=C(O)[C@H](Cc1ccccc1)N1C(=O)/C(=C/c2ccc(OCCOc3ccc(/C=C4\SC(=S)N([C@@H](Cc5ccccc5)C(=O)O)C4=O)cc3)cc2)SC1=S; 1300
O=C(O)[C@H](Cc1ccccc1)N1C(=O)/C(=C/c2ccc(OCOc3ccc(/C=C4\SC(=S)N([C@@H](Cc5ccccc5)C(=O)O)C4=O)cc3)cc2)SC1=S; 2300

Here is the next item to consider.
Prompt line: State its Ki on Bcl-2-like protein 2 (Homo sapiens, UniProt Q92843): `O=C(OCCOC(=O)[C@H](Cc1ccccc1)N1C(=O)/C(=C/c2ccc(Br)cc2)SC1=S)[C@H](Cc1ccccc1)N1C(=O)/C(=C/c2ccc(Br)cc2)SC1=S`
Response line: 101000

---

- tested-target: Apoptosis regulator Bcl-2 (Homo sapiens)
- Sequence (P10415 whole entry): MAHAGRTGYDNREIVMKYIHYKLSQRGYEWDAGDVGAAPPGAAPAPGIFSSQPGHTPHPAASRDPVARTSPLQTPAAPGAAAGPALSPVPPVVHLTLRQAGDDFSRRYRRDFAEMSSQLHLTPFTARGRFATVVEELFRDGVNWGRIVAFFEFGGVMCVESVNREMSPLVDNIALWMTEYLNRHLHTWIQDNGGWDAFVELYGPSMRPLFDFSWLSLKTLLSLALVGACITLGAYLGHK
- assay-method-text: Inhibition of Bak peptide binding to human recombinant Bcl2
measurement-kind: pKi
Numbers only, as −log10 of the molar value.

Example entries begin here.
O=C(O)[C@H](Cc1ccccc1)N1C(=O)/C(=C/c2ccc(OCOc3ccc(/C=C4\SC(=S)N([C@@H](Cc5ccccc5)C(=O)O)C4=O)cc3)cc2)SC1=S; 5.37
O=C(O)[C@H](Cc1ccccc1)N1C(=O)/C(=C/c2ccc(OCCOCCOc3ccc(/C=C4\SC(=S)N([C@@H](Cc5ccccc5)C(=O)O)C4=O)cc3)cc2)SC1=S; 5.37
O=C(OCCOCCOCCOC(=O)[C@H](Cc1ccccc1)N1C(=O)/C(=C/c2ccc(Br)cc2)SC1=S)[C@H](Cc1ccccc1)N1C(=O)/C(=C/c2ccc(Br)cc2)SC1=S; 3.79
O=C(O)[C@H](Cc1ccccc1)N1C(=O)/C(=C/c2ccc(OCCOc3ccc(/C=C4\SC(=S)N([C@@H](Cc5ccccc5)C(=O)O)C4=O)cc3)cc2)SC1=S; 5.77

Prompt line: For `O=C(O)[C@H](Cc1ccccc1)N1C(=O)/C(=C/c2ccc(OCCOCCOCCOc3ccc(/C=C4\SC(=S)N([C@@H](Cc5ccccc5)C(=O)O)C4=O)cc3)cc2)SC1=S` , what is its reported pKi?
Response line: 4.67

---

- tested-target: Bcl-2-like protein 2 (Homo sapiens)
- Sequence (Q92843 whole entry): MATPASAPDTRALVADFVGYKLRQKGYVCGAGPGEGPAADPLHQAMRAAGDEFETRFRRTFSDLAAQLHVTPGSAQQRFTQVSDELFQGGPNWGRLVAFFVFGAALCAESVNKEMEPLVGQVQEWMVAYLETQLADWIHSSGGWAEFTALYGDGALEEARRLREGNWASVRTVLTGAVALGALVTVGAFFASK
- assay-method-text: Inhibition of Bak peptide binding to human recombinant Bcl-w
Decide using Ki alone. Strictly below 100 µM: T. Equal to or above 100 µM: F.

Some solved cases for reference:
O=C(O)[C@H](Cc1ccccc1)N1C(=O)/C(=C/c2ccc(OCCOCCOc3ccc(/C=C4\SC(=S)N([C@@H](Cc5ccccc5)C(=O)O)C4=O)cc3)cc2)SC1=S; T
CCOC(=O)[C@H](Cc1ccccc1)N1C(=O)/C(=C/c2ccc(Br)cc2)SC1=S; F
CCOC(=O)[C@H](Cc1ccccc1)N1C(=O)/C(=C/c2ccc(OCOc3ccc(/C=C4\SC(=S)N([C@@H](Cc5ccccc5)C(=O)OCC)C4=O)cc3)cc2)SC1=S; T

Prompt line: Quick check: does `O=C(O)[C@H](Cc1ccccc1)N1C(=O)/C(=C/c2ccc(OCCOCCOCCOc3ccc(/C=C4\SC(=S)N([C@@H](Cc5ccccc5)C(=O)O)C4=O)cc3)cc2)SC1=S` have Ki under 100 µM?
Response line: T

Prompt line: Quick check: does `O=C(OCCOCCOCCOC(=O)[C@H](Cc1ccccc1)N1C(=O)/C(=C/c2ccc(Br)cc2)SC1=S)[C@H](Cc1ccccc1)N1C(=O)/C(=C/c2ccc(Br)cc2)SC1=S` have Ki under 100 µM?
Response line: T
